# Tested on: U2OS
# measurement-protocol: Multiplex assay against U2OS
# Type: toxicity, cell-based
# details: human, 24 h, 10 µM, compound concentration 10 uM, replicate 1
experimental-readout: Population Pyknosed Nuclei (%)
Report the value in % with no unit label.

Solved cases (5 shown):
compound: CCc1cccc(CC)c1NC(=O)c1nn(C)c2c1CCc1cnc(Nc3ccc(C(=O)NC4CCN(C)CC4)cc3OC(F)(F)F)nc1-2
assay-result: 30
--
compound: CCN(CC)S(=O)(=O)Nc1cccc(-c2ccc3c(NC(=O)C4CC4)n[nH]c3c2)c1
assay-result: 21
--
compound: Cc1ccc2nc(NCCN)c3ncc(C)n3c2c1.O=C(O)C(F)(F)F.O=C(O)C(F)(F)F
assay-result: 41
--
compound: COc1cc2ncnc(Nc3ccc(F)c(Cl)c3)c2cc1NC(=O)/C=C/CN1CCCCC1 [DACOMITINIB ANHYDROUS]
assay-result: 8
--
compound: CCn1cc(-c2ccnc3[nH]c(-c4cccc(CN(C)C)c4)cc23)c(-c2ccc(NC(=O)N(C)C)cc2)n1
assay-result: 40

[Q] Output measured Population Pyknosed Nuclei (%) for this item: Cc1cn(-c2cc(NC(=O)c3ccc(C)c(Nc4nccc(-c5cccnc5)n4)c3)cc(C(F)(F)F)c2)cn1
[A] 23

[Q] Output measured Population Pyknosed Nuclei (%) for this item: COCC(=O)NC/C=C/c1ccc2ncnc(Nc3ccc(Oc4ccc(C)nc4)c(C)c3)c2c1
[A] 33

These entries and their values trace back to ChEMBL document CHEMBL4689842.
